The reported numbers originate from patent US20150086555A1.

systemName: recombinant soluble homotrimeric HA of A/Netherlands/219/03 (H7N7) (Influenza A virus A/Netherlands/219/03(H7N7))
assayComment: HA microarray, BCC supernatant
particulars: remark: other sources report otherwise
The entries below come with measured Trimeric HA Binding: RLU values attached.
quantityKind: Trimeric HA Binding: RLU (RLU)

binder: TCN-545 (5082_I15) (antibody, V domains shown) VH: QVQLQQWGAGLLKPSETLSLSCAVFGGSFSDYYWTWIRQPPGKGLEWIGEIKHSGRTNYNPSLESRVTISVDTSKNQFSLKLSSVTAADTAIYYCARGTDPDTEGYCRSGSCSAFDFWGQGTLVTVSS VL: EIVLTQSPGTLSLSPGERATLSCRASHFVNYRSLAWYQQTPGQVPRLLIYGASTRATGIPDRFSGSGSGTDFTLTISRLEPEDFAVYFCQQYGGSPRYTFGQGTRLEIK
readoutValue: 1180
--
binder: TCN-537 (3194_D21) (antibody, V domains shown) VH: QVQLQQWGSGLLKPSETLSLTCAVYGGSFRDDYWTWIRQPPGKGLEWIGEINHSGRTNYNPSLKSRVTISVDTSLKQFSLKVISVTAADTAVYYCARGTSHVSRYFDWLPPTNWFDPWGQGTQVTVSS VL: DIVLTQSPGTLSLSPGERATLSCRASQSVSSSYLAWYQQKPGQAPRLVMYGAATRATGIPDRFSGSGSGPDFTLTISRLEPEDFAMYYCQQYGNSPITFGQGTRLEIK
readoutValue: 1050
